- Test system: HaCat
- PROTOCOL_DETAILS: Cytotoxic Profiling of Annotated Libraries Using Quantitative High-Throughput Screening (AID 1296008); also: nearly all actives have a fitted effect of over 60% in size
- CONDITION_PARAMETERS: Five cell lines viability, CellTiter-Glo ATP luminescence, 48-72 h
Records with an inconclusive call do not appear. Activity calls are given as the source filed them. Calls follow the shape of the dose curve; as a rule, active = well fitted inhibition curve with a large enough effect; inconclusive = small, poorly fitted or top-dose-only effect; inactive = flat fitted curve, though single readings scatter.
Valid outcomes are listed here; reply with one: active, inactive

Input: State the result this test recorded for C[C@@H]1CN(c2c(F)c(N)c3c(=O)c(C(=O)O)cn(C4CC4)c3c2F)C[C@H](C)N1 .
Output: inactive

Input: State the result this test recorded for COc1cc(NS(=O)(=O)c2ccc(N)cc2)nc(OC)n1 .
Output: inactive

Input: State the result this test recorded for CC1=NN(c2ccccc2)C(=O)C1 .
Output: inactive

Input: State the result this test recorded for Cn1c(=O)c2c(ncn2CC(O)CO)n(C)c1=O (stereo not drawn) .
Output: inactive

Input: State the result this test recorded for S=P(N1CC1)(N1CC1)N1CC1 .
Output: inactive

Input: State the result this test recorded for COc1nc(N)nc2c1ncn2[C@@H]1O[C@H](CO)[C@@H](O)[C@@H]1O .
Output: inactive

Input: State the result this test recorded for CCn1cc(C(=O)O)c(=O)c2cc(F)c(N3CCN(C)CC3)cc21 .
Output: inactive

Input: State the result this test recorded for CC(=O)[C@H]1CC[C@H]2[C@@H]3CC=C4C[C@@H](O)CC[C@]4(C)[C@H]3CC[C@]12C .
Output: inactive

Input: State the result this test recorded for CN(C)CCc1c[nH]c2ccc(CS(=O)(=O)N3CCCC3)cc12 .
Output: inactive

Input: State the result this test recorded for CCCCc1oc2ccc(NS(C)(=O)=O)cc2c1C(=O)c1ccc(OCCCN(CCCC)CCCC)cc1 .
Output: active

Input: State the result this test recorded for CS(=O)(=O)c1ccc([C@@H](O)[C@@H](CO)NC(=O)C(Cl)Cl)cc1 .
Output: inactive

Input: State the result this test recorded for O=S(=O)(c1cccc2cnccc12)N1CCCNCC1 .
Output: inactive

Input: State the result this test recorded for CCN(CC)CC#CCOC(=O)C(O)(c1ccccc1)C1CCCCC1 (stereo not drawn) .
Output: inactive

Input: State the result this test recorded for CC(C(=O)O)c1ccc2c(c1)CC(=O)c1ccccc1S2 (stereo not drawn) .
Output: inactive

Input: State the result this test recorded for CC(=O)CC(c1ccccc1)c1c(O)c2ccccc2oc1=O (stereo not drawn) .
Output: inactive

Input: State the result this test recorded for COc1cccc(N(C)C(=S)Oc2ccc3c(c2)CCCC3)n1 .
Output: inactive

Input: State the result this test recorded for Cn1nnc2c(C(N)=O)ncn2c1=O .
Output: inactive

Input: State the result this test recorded for CN1CCN(c2c(F)cc3c(=O)c(C(=O)O)cn4c3c2OCN4C)CC1 .
Output: inactive

Input: State the result this test recorded for Cc1ccc(S(=O)(=O)N[C@@H](Cc2ccccc2)C(=O)CCl)cc1 .
Output: inactive

Input: State the result this test recorded for CCc1cc(C(N)=S)ccn1 .
Output: inactive

Input: State the result this test recorded for CCn1cc(C(=O)O)c(=O)c2cc(F)c(N3CCNCC3)cc21 .
Output: inactive

Input: State the result this test recorded for CCOC(=O)[C@H](CCc1ccccc1)N[C@H]1CS[C@H](c2cccs2)CN(CC(=O)O)C1=O .
Output: inactive

Input: State the result this test recorded for CCCc1cc(C(N)=S)ccn1 .
Output: inactive

###

- Tested on: Tov112D
- PROTOCOL_DETAILS: Primary qHTS to identify gynecologic anti-cancer compounds using libraries of approved drugs and bioactive compounds (AID 1345084); also: nearly all actives have a fitted effect of over 55% in size
- CONDITION_PARAMETERS: Gynecologic cancer cell panel viability, ATPlite luminescence, 48 h; series mostly up to 57.5 µM
Records with an inconclusive call do not appear. Activity calls are given as the source filed them. The call rests on the fitted dose curve; in most records, active means well fitted cell-killing curve with a large enough effect; inconclusive means small, poorly fitted or top-dose-only effect, or effect the other way; inactive means flat fitted curve, though single readings scatter.
Valid outcomes are listed here; reply with one: Y for active, N for inactive

Input: State the result this test recorded for CNC1CCCN(c2c(F)cc3c(=O)c(C(=O)O)cn(C4CC4)c3c2OC)C1 (configuration not stated) .
Output: N

Input: State the result this test recorded for Nc1ccc(S(=O)(=O)Nc2ccccn2)cc1 .
Output: N

Input: State the result this test recorded for CNS(=O)(=O)Cc1ccc2[nH]cc(CCN(C)C)c2c1 .
Output: N

Input: State the result this test recorded for Clc1ccccc1CN1CCc2sccc2C1 .
Output: N

Input: State the result this test recorded for NS(=O)(=O)c1cc2c(cc1Cl)NC(C(Cl)Cl)NS2(=O)=O (configuration not stated) .
Output: N

Input: State the result this test recorded for CCOCC(O)COc1ccc(NC(=O)CC[S+](C)C)cc1 (configuration not stated) .
Output: N

Input: State the result this test recorded for CCCOc1ccc(C(=O)OCCN(CC)CC)cc1N .
Output: N

Input: State the result this test recorded for COC(=O)Nc1nc2ccc(S(=O)c3ccccc3)cc2[nH]1 (configuration not stated) .
Output: Y

Input: State the result this test recorded for Cc1nnc(C(=O)NC(C)(C)c2nc(C(=O)NCc3ccc(F)cc3)c(O)c(=O)n2C)o1 .
Output: N

Input: State the result this test recorded for O=C(O)c1cc(=O)[nH]c(=O)[nH]1 .
Output: N

Input: State the result this test recorded for CC(C)OC(=O)C(C(=O)OC(C)C)=C1SC=CS1 .
Output: N

Input: State the result this test recorded for CCOC(=O)c1ccc(C#Cc2ccc3c(c2)C(C)(C)CCS3)nc1 .
Output: N

###

- Tested on: CP247
- PROTOCOL_DETAILS: qHTS profiling for inhibitors of Plasmodium falciparum proliferation (AID 504749); also: nearly all actives have a fitted effect of over 60% in size
- CONDITION_PARAMETERS: P. falciparum in erythrocytes, SYBR Green DNA, 72 h; series mostly up to 28.7 µM
Results filed as inconclusive are left out. Active and inactive are the calls of the source. The call rests on the fitted dose curve; in most records, active means well fitted inhibition curve with a large enough effect; inconclusive means small, poorly fitted or top-dose-only effect; inactive means flat fitted curve, though single readings scatter.
Valid outcomes are listed here; reply with one: y = active, n = inactive

Input: State the result this test recorded for CN1CCN(c2c(F)cc3c(=O)c(C(=O)O)cn4c3c2OCN4C)CC1 .
Output: n

Input: State the result this test recorded for CCOC(=O)c1ccc(OC(=O)CCCCCN=C(N)N)cc1 .
Output: n

Input: State the result this test recorded for Nc1nc(N)c2nc(CNc3ccc(C(=O)NC(CCC(=O)O)C(=O)O)cc3)cnc2n1 (stereo unspecified) .
Output: n

Input: State the result this test recorded for NC(=O)N1c2ccccc2CC(=O)c2ccccc21 .
Output: n

Input: State the result this test recorded for NC(=O)c1cccnc1 .
Output: n

Input: State the result this test recorded for Cc1ccnc2c1NC(=O)c1cccnc1N2C1CC1 .
Output: n

Input: State the result this test recorded for COc1cc2c(Nc3ccc(Br)cc3F)ncnc2cc1OCC1CCN(C)CC1 .
Output: y

Input: State the result this test recorded for CCCc1cc(C(N)=S)ccn1 .
Output: n

Input: State the result this test recorded for CC[C@H](C)C(=O)O[C@H]1C[C@@H](C)C=C2C=C[C@H](C)[C@H](CC[C@@H]3C[C@@H](O)CC(=O)O3)[C@H]21 .
Output: n

Input: State the result this test recorded for NCCCC(O)(P(=O)(O)O)P(=O)(O)O .
Output: n

Input: State the result this test recorded for COc1cc(NCc2ccc3nc(N)nc(N)c3c2C)cc(OC)c1OC .
Output: y

###

- PROTOCOL_DETAILS: Quantitative High-Throughput drug screen in 47 multiple myeloma cell lines against the NCATS MIPE library collection: KHM11_PLB cell viability assay (AID 1918962); also: nearly all actives have a fitted effect of over 35% in size
- CONDITION_PARAMETERS: KHM11 myeloma cell viability, CellTiter-Glo ATP luminescence, 48 h; series mostly up to 45.8 µM
Inconclusive results are not listed. Active and inactive are the calls of the source. Calls come from the whole dose curve; as a rule, active = well fitted cell-killing curve with a large enough effect; inconclusive = small, poorly fitted or top-dose-only effect, or effect the other way; inactive = no such curve, though single readings can be large or run the other way.
Valid outcomes are listed here; reply with one: active, inactive

Input: State the result this test recorded for Nc1nc(F)nc2c1ncn2[C@@H]1O[C@H](CO)[C@@H](O)[C@@H]1O .
Output: active

Input: State the result this test recorded for NC1(c2ccc(-c3nc4ccn5c(=O)[nH]nc5c4cc3-c3ccccc3)cc2)CCC1 .
Output: active

Input: State the result this test recorded for OCc1ccc(-c2nn(Cc3ccccc3)c3ccccc23)o1 .
Output: active

Input: State the result this test recorded for COc1cc2nc(N3CCCN(C)CC3)nc(NC3CCN(Cc4ccccc4)CC3)c2cc1OC .
Output: active

Input: State the result this test recorded for C1CCC(C(CC2CCCCN2)C2CCCCC2)CC1 (stereo unspecified) .
Output: active

Input: State the result this test recorded for CN(CCOc1ccc(CC2SC(=O)NC2=O)cc1)c1ccccn1 (stereo unspecified) .
Output: inactive

Input: State the result this test recorded for CN(C)CCc1c[nH]c2ccc(CS(=O)(=O)N3CCCC3)cc12 .
Output: active

Input: State the result this test recorded for N=C(N)c1ccc(OCCCCCOc2ccc(C(=N)N)cc2)cc1 .
Output: active

Input: State the result this test recorded for O=P(O)(O)C(O)(Cc1cccnc1)P(=O)(O)O .
Output: inactive

Input: State the result this test recorded for CC(=O)[C@H]1CC[C@H]2[C@@H]3CC=C4C[C@@H](O)CC[C@]4(C)[C@H]3CC[C@]12C .
Output: inactive

Input: State the result this test recorded for CCn1cc(C(=O)O)c(=O)c2cc(F)c(N3CCNCC3)cc21 .
Output: inactive

Input: State the result this test recorded for CCCc1nc(C)c2c(=O)[nH]c(-c3cc(S(=O)(=O)N4CCN(CC)CC4)ccc3OCC)nn12 .
Output: active

Input: State the result this test recorded for CC(C)(C)NC(=O)[C@H]1CC[C@H]2[C@@H]3CC[C@H]4NC(=O)C=C[C@]4(C)[C@H]3CC[C@]12C .
Output: active

Input: State the result this test recorded for C[C@@H](NCCCc1cccc(C(F)(F)F)c1)c1cccc2ccccc12 .
Output: inactive

Input: State the result this test recorded for C[C@@H]1C[C@H]2[C@@H]3CCC4=CC(=O)C=C[C@]4(C)[C@@]3(Cl)[C@@H](O)C[C@]2(C)[C@@]1(OC(=O)c1ccco1)C(=O)CCl .
Output: active

Input: State the result this test recorded for CCOCC(O)COc1ccc(NC(=O)CC[S+](C)C)cc1 (stereo unspecified) .
Output: inactive

Input: State the result this test recorded for O=C(N[C@H](CO)[C@H](O)c1ccc([N+](=O)[O-])cc1)C(Cl)Cl .
Output: inactive

Input: State the result this test recorded for Cc1ccc(S(=O)(=O)N[C@@H](Cc2ccccc2)C(=O)CCl)cc1 .
Output: active

Input: State the result this test recorded for CCn1cc(C(=O)O)c(=O)c2cc(F)c(N3CCNCC3)nc21 .
Output: inactive

Input: State the result this test recorded for O[C@@H](CNC[C@H](O)[C@H]1CCc2cc(F)ccc2O1)[C@@H]1CCc2cc(F)ccc2O1 .
Output: active

Input: State the result this test recorded for CNNCc1ccc(C(=O)NC(C)C)cc1 .
Output: inactive

Source: PubChem BioAssay (NCATS)
